Target: HLA A*3001 (Homo sapiens, UniProt P04439, D140H/D185E/E176W/F33S/G80R/H175R/K168Q/R138E/R41S)
Experiment: biochemical
Where a SMILES comes first, the peptide text is derived from it.
Attribute: IC50
Lab book: enter the figure in nM, no units written.

# compound, IC50 [nM]
records = [
    ("CC[C@H](C)[C@H](NC(=O)[C@@H](N)CCCCN)C(=O)N[C@@H](CCCCN)C(=O)N[C@@H](CO)C(=O)N1CCC[C@H]1C(=O)N[C@H](C(=O)N[C@@H](Cc1ccc(O)cc1)C(=O)N[C@@H](Cc1ccc(O)cc1)C(=O)N[C@@H](CCCCN)C(=O)O)[C@@H](C)CC [3102.0014] (H-KIKSPIYYK-OH)", 0.93),
]

Query: What value of measured IC50 is listed for CC[C@H](C)[C@H](N)C(=O)N[C@H](C(=O)N[C@@H](Cc1ccc(O)cc1)C(=O)N[C@@H](CO)C(=O)N[C@@H](CC(C)C)C(=O)N[C@H](C(=O)N[C@H](C(=O)N[C@H](C(=O)N[C@H](C(=O)O)[C@@H](C)CC)[C@@H](C)O)[C@@H](C)O)C(C)C)C(C)C [3102.0292] (H-IVYSLVTTI-OH) ?
Reply: 16

Query: What value of measured IC50 is listed for CC(C)C[C@H](NC(=O)[C@H](CCCCN)NC(=O)[C@H](CCCCN)NC(=O)[C@@H](NC(=O)[C@@H](N)CCCCN)C(C)C)C(=O)N[C@@H](CC(N)=O)C(=O)N[C@@H](CCCNC(=N)N)C(=O)N[C@@H](CS)C(=O)N[C@@H](C)C(=O)O [3102.0262] (H-KVKKLNRCA-OH) ?
Reply: 3.1
